- Test system: Aβ42 (Homo sapiens, UniProt P05067)
- Sequence (P05067 672-713): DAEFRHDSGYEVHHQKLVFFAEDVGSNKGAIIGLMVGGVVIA
- Assay notes: Th-T (thioflavin-T) assay of Aβ42 aggregation
- Assay type: biochemical
- Run parameters: Supplementary Fig. 47; reading M145
Examples of compounds with documented Th-T fluorescence, mean of three wells follow.
// return a plain number; no unit text

Check out these entries, answers already filled in.
{"Compound": "C=C1CC[C@@H]2[C@](C)(CC[C@H]3O[C@H](C=C(C)C)C[C@@]23C)[C@@H]1Cc1c(O)c(C)c(C)oc1=O", "Th-T fluorescence, mean of three wells": 2.953}
{"Compound": "CC(C)=CCC/C(C)=C/CC/C(C)=C/CC/C(C)=C/Cc1c(O)c(C)c(C)oc1=O", "Th-T fluorescence, mean of three wells": 2.925}

Fill in the blank: the reported Th-T fluorescence, mean of three wells of `C=C1CC[C@H]2[C@]3(C)C[C@H](C=C(C)C)O[C@H]3CC[C@]2(C)[C@@H]1Cc1c(O)c(C)c(C)oc1=O` is ____.
3.0288

---

- Assay notes: cytotoxicity in Drosophila l(2)mbn cells
- Format: cell-based
- Run parameters: Drosophila, l(2)mbn cells (larval blood cell-derived), 0.2 µM, replicate 1, relative to DMSO 1%, read-out: % viability, viability 1
Examples of compounds with documented viability at 0.2 µM follow.
Only the number, expressed in %, is required.

{"Compound": "C=C1CCC2C(C)(CCC=C(C)C)C(O)CCC2(C)C1Cc1c(O)c(C)c(C)oc1=O (centres unmarked)", "viability at 0.2 µM / %": 92.2}
{"Compound": "C=C1CCC2C(C)(CCC=C(C)C)C(O)CCC2(C)C1Cc1c(OC)oc(CO)c(C)c1=O (centres unmarked)", "viability at 0.2 µM / %": 156}
{"Compound": "C=C1CCC2C3(C)CC(C=C(C)C)OC3CCC2(C)C1Cc1c(OC)oc(C)c(C)c1=O (centres unmarked)", "viability at 0.2 µM / %": 126}
{"Compound": "C=C1CC[C@H]2[C@]3(C)C[C@H](C=C(C)C)O[C@H]3CC[C@]2(C)[C@@H]1Cc1c(O)c(C)c(C)oc1=O", "viability at 0.2 µM / %": 128}
{"Compound": "C=C1CCC2C(C)(CC(=O)C=C(C)C)C(O)CCC2(C)C1Cc1c(OC)oc(CO)c(C)c1=O (centres unmarked)", "viability at 0.2 µM / %": 131}

Fill in the blank: the reported viability at 0.2 µM of `C=C1CC[C@H]2[C@]3(C)C[C@@H](C=C(C)C)O[C@H]3CC[C@]2(C)[C@@H]1Cc1c(OC)oc(CO)c(C)c1=O` is ____.
61.4

Also `C=C1CC[C@H]2[C@]3(C)C[C@H](C=C(C)C)O[C@H]3CC[C@]2(C)[C@@H]1Cc1c(OC)oc(CO)c(C)c1=O` ?
131

Also `C=C1CC[C@H]2[C@]3(C)C[C@@H](C=C(C)C)O[C@H]3CC[C@]2(C)[C@@H]1Cc1c(O)c(C)c(C)oc1=O` ?
19.9

---

- Test system: Aβ42 (Homo sapiens, UniProt P05067)
- Assay notes: Th-T (thioflavin-T) assay of Aβ42 aggregation
- Format: biochemical
- Run parameters: Aβ42 aggregation time course, reading M132
Readout: Th-T fluorescence, mean of three wells
// return a plain number; no unit text

Check out these entries, answers already filled in.
{"Compound": "C=C1CCC2C(C)(CCC=C(C)C)C(O)CCC2(C)C1Cc1c(OC)oc(C)c(C)c1=O (stereo not shown) [Compound 15, viridoxin A hydrolysate]", "Readout": "Th-T fluorescence, mean of three wells", "Recorded measurement": 3.341}
{"Compound": "C=C1CCC2C(C)(CCC=C(C)C)C(O)CCC2(C)C1Cc1c(O)c(C)c(C)oc1=O (stereo not shown) [Compound 4]", "Readout": "Th-T fluorescence, mean of three wells", "Recorded measurement": 2.778}
{"Compound": "C=C1CCC2C(C)(CCC=C(C)C)C(O)CCC2(C)C1Cc1c(OC)oc(C)c(C)c1=O (stereo not shown) [Compound 11]", "Readout": "Th-T fluorescence, mean of three wells", "Recorded measurement": 3.363}
{"Compound": "C=C1CCC2C(C)(CCC=C(C)C)C(=O)CCC2(C)C1Cc1c(O)c(C)c(C)oc1=O (stereo not shown)", "Readout": "Th-T fluorescence, mean of three wells", "Recorded measurement": 2.211}
{"Compound": "C=C1CCC2C(C)(CCC=C(C)C)C(O)CCC2(C)C1Cc1c(O)c(C)c(C)oc1=O (stereo not shown) [Compound 9, higginsianin B]", "Readout": "Th-T fluorescence, mean of three wells", "Recorded measurement": 2.756}

Fill in the blank: the reported Th-T fluorescence, mean of three wells of `C=C1CC[C@@H]2[C@](C)(CC[C@H]3O[C@H](C=C(C)C)C[C@@]23C)[C@@H]1Cc1c(O)c(C)c(C)oc1=O` is ____.
2.974

Also C=C1CCC2C3(C)CC(C=C(C)C)OC3CCC2(C)C1Cc1c(OC)oc(C)c(C)c1=O (stereo not shown) ?
3.801

Also `C=C1CC[C@H]2[C@]3(C)C[C@@H](C=C(C)C)O[C@H]3CC[C@]2(C)[C@@H]1Cc1c(OC)oc(CO)c(C)c1=O` ?
3.621

Also `CC(C)=CCC/C(C)=C/CC/C(C)=C/CC/C(C)=C/Cc1c(O)c(C)c(C)oc1=O` ?
2.934

Also `C=C1CC[C@H]2[C@]3(C)C[C@H](C=C(C)C)O[C@H]3CC[C@]2(C)[C@@H]1Cc1c(OC)oc(CO)c(C)c1=O` ?
3.815

These measurements were taken from paper PMC7156458.
